# Target or system: human mAChR M4 (Homo sapiens)
# Construct: expressed in transfected cells; host or cells: CHO-K1 (ATCC), stably expressing hM4 and Gqi5
# Sequence (P08173 1-479): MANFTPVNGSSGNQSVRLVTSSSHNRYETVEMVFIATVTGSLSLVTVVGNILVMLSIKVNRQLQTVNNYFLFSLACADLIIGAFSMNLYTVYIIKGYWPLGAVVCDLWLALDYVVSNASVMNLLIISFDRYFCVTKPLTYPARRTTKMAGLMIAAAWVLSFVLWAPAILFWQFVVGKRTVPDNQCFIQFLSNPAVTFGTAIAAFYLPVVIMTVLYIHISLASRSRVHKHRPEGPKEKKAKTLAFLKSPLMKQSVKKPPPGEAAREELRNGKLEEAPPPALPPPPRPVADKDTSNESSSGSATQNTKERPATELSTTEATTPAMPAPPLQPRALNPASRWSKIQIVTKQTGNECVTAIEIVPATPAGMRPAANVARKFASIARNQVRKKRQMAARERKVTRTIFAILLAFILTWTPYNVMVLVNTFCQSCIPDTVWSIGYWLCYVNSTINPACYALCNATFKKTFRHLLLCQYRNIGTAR
# Method description: mAChR M4 cell-based functional assay: calcium flux (Fluo-4, FDSS), positive allosteric modulator activity on the EC20 acetylcholine response, hM4-Gqi5 CHO-K1 cells
# Condition details: human M4; PAM activity on EC20 acetylcholine response, calcium flux; read-out: Human M4 EC50
# maps each entry to its EC50

Use these answered entries as a reference point.
- Compound: "Fc1ccc2nc(Cl)nc(N3CCc4ncc(Br)cc4C3)c2c1"
  Measured quantity: "EC50"
  Result: "100 nM"
- Compound: "Fc1ccc2ncnc(N3CCc4ncc(N5CCCn6nc(C7CC7)cc65)cc4C3)c2c1"
  Measured quantity: "EC50"
  Result: "390 nM"
- Compound: "Cc1nc(N2CCc3ncc(N4CCN(C)C5(COC5)C4)cc3C2)c2cc(Cl)ccc2n1"
  Measured quantity: "EC50"
  Result: "580 nM"
- Compound: "Cc1ncc(-c2cnc3c(c2)CN(c2ncnc4ccc(Cl)cc24)CC3)s1"
  Measured quantity: "EC50"
  Result: "110 nM"
- Compound: "Fc1cc2c(N3CCc4ncc(C(F)(F)F)cc4C3)nc(N3CCOCC3)nc2cc1Cl"
  Measured quantity: "EC50"
  Result: "> 10000 nM"

Please indicate EC50 recorded for Cn1nccc1Nc1cnc2c(c1)CN(c1ncnc3ccc(F)cc13)CC2 30 nM

Please indicate EC50 recorded for Cc1nc(N2CCc3ncc(N4CCO[C@@H](c5ccccc5)C4)cc3C2)c2cc(F)ccc2n1 3470 nM

----------
# Target or system: human mAChR M4 (Homo sapiens)
# Construct: expressed in transfected cells; host or cells: CHO-K1 (ATCC), stably expressing hM4 and Gqi5
# Sequence (P08173 1-479): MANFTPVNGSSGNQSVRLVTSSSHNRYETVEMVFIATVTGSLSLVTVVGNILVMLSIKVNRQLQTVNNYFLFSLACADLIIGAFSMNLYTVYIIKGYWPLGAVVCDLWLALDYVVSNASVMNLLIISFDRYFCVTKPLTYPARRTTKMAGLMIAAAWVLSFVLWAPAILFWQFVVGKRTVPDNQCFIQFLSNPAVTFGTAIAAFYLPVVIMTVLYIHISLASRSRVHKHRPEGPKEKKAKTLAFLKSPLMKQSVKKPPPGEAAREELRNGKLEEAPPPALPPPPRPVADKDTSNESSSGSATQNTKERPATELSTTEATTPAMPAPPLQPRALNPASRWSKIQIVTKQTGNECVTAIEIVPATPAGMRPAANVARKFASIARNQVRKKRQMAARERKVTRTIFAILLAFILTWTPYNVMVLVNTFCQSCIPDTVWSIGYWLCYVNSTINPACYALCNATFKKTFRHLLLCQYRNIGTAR
# Method description: mAChR M4 cell-based functional assay: calcium flux (Fluo-4, FDSS), positive allosteric modulator activity on the EC20 acetylcholine response, hM4-Gqi5 CHO-K1 cells
# Condition details: human M4; PAM activity on EC20 acetylcholine response, calcium flux; read-out: Human M4 EC50
Measured quantity: pEC50
Entry type: numeric. Quantity: pEC50, the -log10 of concentration in molar units.

Use these answered entries as a reference point.
- Compound: "Fc1ccc2ncnc(N3CCc4ncc(Oc5ccccc5F)cc4C3)c2c1"
  pEC50: 6.80
- Compound: "Cc1nc(N2CCc3ncc(N4CCOC(c5cccnc5)C4)cc3C2)c2cc(F)ccc2n1 (centres unmarked)"
  pEC50: 6.30
- Compound: "FC(F)(F)c1cnc2c(c1)CN(c1nc(Cl)nc3ccc(C(F)(F)F)cc13)CC2"
  pEC50: 5.78
- Compound: "Cc1ccc2ncnc(N3CCc4ncc(N5CCOc6ncccc65)cc4C3)c2c1"
  pEC50: 6.92

Pending compound:
Please indicate pEC50 recorded for Cc1nc(N2CCc3ncc(N4CCCn5nccc54)cc3C2)c2cc(Cl)ccc2n1 6.64
